Reference source for all entries: patent US11760758B2

Parameter 'readout' = pKi; parameter 'system' = mouse KOR (Mus musculus).
pKi here: minus log base 10 of the concentration, concentration in moles per litre.

{"columns": ["molecule", "pKi"],
 "data": [
  ["CC[C@@H]1CN2CC[C@@]3(O)C(=Nc4cc(Br)cc(OC)c43)[C@@H]2C[C@@H]1/C(=C\\OC)C(=O)OC", 7.09],
  ["CC[C@@H]1CN2CC[C@@]3(O)C(=Nc4cc(Cl)cc(OC)c43)[C@@H]2C[C@@H]1/C(=C\\OC)C(=O)OC", 7.51],
  ["CC[C@@H]1CN2CC[C@@]3(O)C(=Nc4cc(F)cc(OC)c43)[C@@H]2C[C@@H]1/C(=C\\OC)C(=O)OC [Compound 24, 11-Fluoro-7-hydroxymitragynine]", 7.68]
]}

Now examine the next entry.
Fill in: mouse KOR (Mus musculus) pKi for CC[C@@H]1CN2CC[C@@]3(O)C(=Nc4cccc(OC)c43)[C@@H]2C[C@@H]1/C(=C\OC)C(=O)OC [Compound 23, 7-hydroxymitragynine, reference compound] = 6.92

---

// Emax lookup, one value per entry
# tgt: human MOR (Homo sapiens)
# Construct: host or cells: HEK-293T
# assay details: BRET functional assay for G protein activation at hMOR
# Type: cell-based
# details: Table 2, MG-EG series; hMOR G protein BRET; normalized to DAMGO Emax = 100%

{"columns": ["molecule", "Emax"],
 "data": [
  ["CC[C@@H]1CN2CC[C@@]34OCCO[C@@]3(Nc3cc(F)cc(OC)c34)[C@@H]2C[C@@H]1/C(=C\\OC)C(=O)OC", "< 20%"],
  ["CC[C@@H]1CN2CC[C@@]34OCCO[C@@]3(Nc3cc(Br)cc(OC)c34)[C@@H]2C[C@@H]1/C(=C\\OC)C(=O)OC", "< 20%"],
  ["CC[C@@H]1CN2CC[C@@]34OCCO[C@@]3(Nc3cc(Cl)cc(OC)c34)[C@@H]2C[C@@H]1/C(=C\\OC)C(=O)OC", "< 20%"]
]}

Form: molecule = CC[C@@H]1CN2CC[C@@]34OCCO[C@@]3(Nc3cccc(OC)c34)[C@@H]2C[C@@H]1/C(=C\OC)C(=O)OC [Compound 1, mitragynine-ethylene glycol adduct, reference compound] ; Emax = 56.2%

---

Entries and their measured Emax follow.
# tgt: human MOR (Homo sapiens, UniProt P35372)
# Construct: host or cells: HEK-293T
# assay details: BRET functional assay for G protein activation at hMOR
# Type: cell-based
# details: Table 1, mitragynine series; hMOR G protein BRET; normalized to DAMGO Emax = 100%
# value in %; strip the unit string

{"columns": ["compound", "unit string", "Emax"],
 "data": [
  ["CC[C@@H]1CN2CCc3c([nH]c4cc(Cl)cc(OC)c34)[C@@H]2CC1/C(=C\\OC)C(=O)OC (stereo partly shown)", "%", 33.4],
  ["CC[C@@H]1CN2CCc3c([nH]c4cc(F)cc(OC)c34)[C@@H]2C[C@@H]1/C(=C\\OC)C(=O)OC", "%", 49]
]}

Moving on to the next compound.
# Emax (compound: CC[C@@H]1CN2CCc3c([nH]c4cccc(OC)c34)[C@@H]2C[C@@H]1/C(=C\OC)C(=O)OC [Compound 12, mitragynine, reference compound] ) is 26.5

---

# tgt: mouse DOR (Mus musculus)
measurement type: pKi
Formally, pKi is defined as -log10 of the concentration c, with c in mol/L.

{"columns": ["molecule", "pKi"],
 "data": [
  ["CC[C@@H]1CN2CC[C@@]3(O)C(=Nc4cc(F)cc(OC)c43)[C@@H]2C[C@@H]1/C(=C\\OC)C(=O)OC [Compound 24, 11-Fluoro-7-hydroxymitragynine]", 7.45],
  ["CC[C@@H]1CN2CC[C@@]3(O)C(=Nc4cc(Cl)cc(OC)c43)[C@@H]2C[C@@H]1/C(=C\\OC)C(=O)OC", 7.33],
  ["CC[C@@H]1CN2CC[C@@]3(O)C(=Nc4cccc(OC)c43)[C@@H]2C[C@@H]1/C(=C\\OC)C(=O)OC [Compound 23, 7-hydroxymitragynine, reference compound]", 7.05]
]}

Continue with the next molecule.
Looking up CC[C@@H]1CN2CC[C@@]3(O)C(=Nc4cc(Br)cc(OC)c43)[C@@H]2C[C@@H]1/C(=C\OC)C(=O)OC , I found its pKi recorded as 7.24

---

Below: a set of entries, each annotated with reported Emax.
# tgt: mouse MOR (Mus musculus, UniProt P42866)
# assay details: cAMP sensor CAMYEL functional assay at mMOR
# Format: cell-based
# Set-up: host or cells: HEK-293T
Write the number in % without appending the unit.

{"columns": ["compound", "tgt", "Emax / %"],
 "data": [
  ["CC[C@@H]1CN2CC[C@@]3(O)C(=Nc4cc(F)cc(OC)c43)[C@@H]2C[C@@H]1/C(=C\\OC)C(=O)OC [Compound 24, 11-Fluoro-7-hydroxymitragynine]", "mouse MOR (Mus musculus, UniProt P42866)", 63.8]
]}

Now for the compound whose Emax we want.
Data point: CC[C@@H]1CN2CC[C@@]3(O)C(=Nc4cccc(OC)c43)[C@@H]2C[C@@H]1/C(=C\OC)C(=O)OC [Compound 23, 7-hydroxymitragynine, reference compound] ; Emax = 92.4

---

# tgt: mouse MOR (Mus musculus, UniProt P42866)
# assay details: cAMP sensor CAMYEL functional assay at mMOR
# Format: cell-based
# Parameters: host or cells: HEK-293T
# details: Table 5, 7-OH series; mMOR CAMYEL cAMP assay; 95% confidence limits in brackets; read-out: EC50
measurement type: pEC50
Remember the convention: pEC50 equals -log10 of concentration in molar.

The reported value for CC[C@@H]1CN2CC[C@@]3(O)C(=Nc4cc(F)cc(OC)c43)[C@@H]2C[C@@H]1/C(=C\OC)C(=O)OC [Compound 24, 11-Fluoro-7-hydroxymitragynine] in terms of pEC50 is 7.82

---

# tgt: human MOR (Homo sapiens)
# Construct: host or cells: HEK-293T
# assay details: BRET functional assay for G protein activation at hMOR
# Format: cell-based
measurement type: pEC50
Reminder that pEC50 is minus the log10 of a molar concentration.

Value of pEC50 reported for the compound CC[C@@H]1CN2CC[C@@]34OCCO[C@@]3(Nc3cc(O)cc(OC)c34)[C@@H]2C[C@@H]1/C(=C\OC)C(=O)OC [Compound 6, 11-hydroxy-MG-EG] is 7.95

---

# tgt: human MOR (Homo sapiens)
# Construct: host or cells: HEK-293T
# assay details: BRET functional assay for G protein activation at hMOR
# Type: cell-based
# details: Table 3, 7-OH series; hMOR G protein BRET; normalized to DAMGO Emax = 100%
measurement type: Emax

Look over these answered cases.
{"columns": ["compound", "tgt", "measurement type", "observed measurement"],
 "data": [
  ["CC[C@@H]1CN2CC[C@@]3(O)C(=Nc4cc(Cl)cc(OC)c43)[C@@H]2C[C@@H]1/C(=C\\OC)C(=O)OC [Compound 25, 11-chloro-7-OH]", "human MOR (Homo sapiens)", "Emax", "< 20%"],
  ["CC[C@@H]1CN2CC[C@@]3(O)C(=Nc4cccc(OC)c43)[C@@H]2C[C@@H]1/C(=C\\OC)C(=O)OC [Compound 23, 7-hydroxymitragynine, reference compound]", "human MOR (Homo sapiens)", "Emax", "88%"],
  ["CC[C@@H]1CN2CC[C@@]3(O)C(=Nc4cc(F)cc(OC)c43)[C@@H]2C[C@@H]1/C(=C\\OC)C(=O)OC [Compound 24, 11-Fluoro-7-hydroxymitragynine]", "human MOR (Homo sapiens)", "Emax", "47%"]
]}

// sample CC[C@@H]1CN2CC[C@@]3(O)C(=Nc4cc(Br)cc(OC)c43)[C@@H]2C[C@@H]1/C(=C\OC)C(=O)OC [Compound 26, 11-bromo-7-OH] , its Emax was < 20%

---

# tgt: human MOR (Homo sapiens)
# Construct: host or cells: HEK-293T
# assay details: BRET functional assay for G protein activation at hMOR
# Format: cell-based
# details: EC50 (nM), Table 1, mitragynine series; hMOR G protein BRET; 95% confidence limits in brackets
measurement type: EC50
Your reply should be a number followed by the unit it is expressed in.

EC50 reported for this molecule CC[C@@H]1CN2CCc3c([nH]c4cc(Cl)cc(OC)c34)[C@@H]2CC1/C(=C\OC)C(=O)OC (some centres unmarked) [Compound 14, 11-Chloromitragynine] : 327 nM

Lookup result for CC[C@@H]1CN2CCc3c([nH]c4cc(F)cc(OC)c34)[C@@H]2C[C@@H]1/C(=C\OC)C(=O)OC [Compound 13, 11-fluoro-MG] ; measured EC50: 81.5 nM

---

# tgt: human MOR (Homo sapiens, UniProt P35372)
# Construct: host or cells: HEK-293T
# assay details: BRET functional assay for G protein activation at hMOR
# Assay type: cell-based
# details: EC50 (nM), Table 2, MG-EG series; hMOR G protein BRET; 95% confidence limits in brackets
measurement type: EC50 (nM)
The reply should contain only the number, in nM.

Fill in: human MOR (Homo sapiens, UniProt P35372) EC50 for CC[C@@H]1CN2CC[C@@]34OCCO[C@@]3(Nc3cccc(OC)c34)[C@@H]2C[C@@H]1/C(=C\OC)C(=O)OC [Compound 1, mitragynine-ethylene glycol adduct, reference compound] = 14.8
